Test system: HCC-2998 colon
Assay: NCI tumour cell line growth inhibition, 48 h
Below: a set of entries, each annotated with reported TGI.

Example results:
INSERT INTO results (compound, reading) VALUES
  ('Nc1nc(Nc2cccc(F)c2)nc2ccccc12', '37.3 µM'),
  ('N/N=C(\Cc1ccccc1)NN=C(N)N', '> 100 µM'),
  ('CN(C)Cc1cc(N=Nc2ccccc2Cl)cc(CN(C)C)c1O', '> 100 µM'),
  ('O=c1oc2ccc(Cl)cc2c(=O)n1-c1ccc(I)cc1F', '8.51 µM'),
  ('O=C1C=CC(=O)c2c(O)c(N[C@@H](Cc3ccccc3)C(=O)OCc3ccccc3)c(Cl)c(O)c21', '> 10 µM');

// query Give TGI for "C=C(Br)CN(CC(=C)Br)C(C)=O"
// result > 100 µM

// query Give TGI for "CC1=NN(C(=O)c2ccc(Cl)cc2)C(=O)/C1=C/c1cccc([N+](=O)[O-])c1"
// result > 100 µM

// query Give TGI for "S=c1ssc(Sc2ccccn2)c1Cl"
// result 15.1 µM

// query Give TGI for CCOC(=O)C(O)(NC(=O)Nc1ccc(F)cc1)C(F)(F)F (stereo unspecified)
// result > 100 µM

// query Give TGI for C/C1=C\CC[C@@](C)(O)[C@@H]2CC3[C@@H](OC(=O)C34CC4)[C@@H](O2)[C@H](C)CCC1 (stereo partly specified)
// result 27.8 µM

// query Give TGI for "CSc1c(C(=O)Nc2ccc(Cl)cc2)c(N)[nH]c(=O)c1C#N"
// result > 90.2 µM

====

System: ACHN renal
Assay: NCI tumour cell line growth inhibition, 48 h
reported-property: TGI

INSERT INTO results (compound, reading) VALUES
  ('N#Cc1c2c([nH]c(=O)c1C#N)CCCC2', '> 100 µM'),
  ('O=[N+]([O-])/C(C(Cl)=C(Cl)Cl)=C1/OCCS1', '42.2 µM'),
  ('CC1CC[C@@]2(OC1)OC1C[C@H]3[C@@H]4CC[C@H]5CC(OC6OC(CO)C(OC7OC(CO)C(O)C(O)C7O)C(O)C6O)CCC5(C)[C@H]4CCC3(C)C1[C@@H]2C (stereo partly drawn)', '14.5 µM'),
  ('O=C(Nc1ccc([N+](=O)[O-])cc1)C(=O)C(C(=O)c1ccccc1F)C1OC(=O)c2ccccc21 (stereo not drawn)', '> 100 µM'),
  ('C=CCc1ccc(O)c(-c2cc(C3Oc4c(-c5cc(CC=C)ccc5O)cc(O)cc4[C@@H]3CO)ccc2O)c1 (stereo partly drawn)', '> 100 µM'),
  ('CC(C)=CCC/C(C)=C/Cc1c(O)ccc2c1[nH]c1cc(O)c(C)cc12', '> 25 µM'),
  ('Cc1cccc(C)c1NC(=O)CCCC(=O)C1CC(=O)CCC1=O (stereo not drawn)', '> 100 µM');

As a next step, examine the compound that follows.
// query Give TGI for "Cc1cc(N2CCCC2)nc(N(CCCNc2ccnc3cc(Cl)ccc23)Cc2ccc3c(c2)OCO3)n1"
// result 5.93 µM

====

Test system: HT29 colon
Assay: NCI tumour cell line growth inhibition, 48 h
reported-property: GI50

Example results:
INSERT INTO assay_data (molecule, reported_property, reading) VALUES
  ('COc1ccc2c(c1)C(=O)c1c-2n(CCCN2CCOCC2)c(=O)c2ccccc12', 'GI50', '2.19 µM'),
  ('CN(C)c1ccc(N=Nc2c([O-])ccc3ccccc23)cc1.[C-]#[O+].[C-]#[O+].[Ir]', 'GI50', '28.5 µM'),
  ('Nc1nc(Nc2cccc(F)c2)nc2ccccc12', 'GI50', '21.4 µM'),
  ('O=c1oc2ccc(Cl)cc2c(=O)n1-c1ccc(I)cc1F', 'GI50', '3.41 µM'),
  ('COc1ccc2c(c1)nc(N)c1c3cccnc3cn21', 'GI50', '0.0351 µM');

// query Give GI50 for "COc1ccc(-c2ccc(/C=N/n3c(COc4ccc(Cl)cc4)n[nH]c3=S)o2)c([N+](=O)[O-])c1"
// result 21.1 µM

// query Give GI50 for "COc1ccccc1-c1c(C)nn2c(NCc3ccccn3)cc(C)nc12"
// result 7.31 µM

// query Give GI50 for "Cn1cc(-c2ccc(CNc3cc(-c4cnc5cc(OCCCN6CCCC6)ccn45)ncn3)cc2)cn1"
// result 1.33 µM

// query Give GI50 for O=c1[nH]cnc2c(C3OC(CO)C(O)C3O)scc12 (stereo not given)
// result > 100 µM

// query Give GI50 for "C[C@H](CS(C)(=O)=O)Nc1ncc2cc(Oc3ccc(F)cc3F)c(=O)n(C)c2n1"
// result > 25 µM

====

Test system: NCI-H460 lung
The reply should name one outcome from true (1) = active, false (0) = inactive

Observe how each entry below is paired with its result.
INSERT INTO results (molecule, assigned_class) VALUES
  ('COc1ccccc1-c1c(C)nn2c(NCc3ccccn3)cc(C)nc12', 'false (0)'),
  ('CCc1c[nH]c2ncnc(N3CC[C@@](N)(CNC(=O)c4ccc(F)cc4F)C3)c12', 'false (0)'),
  ('Oc1cc(Cl)ccc1Oc1ccc(Cl)cc1Cl', 'false (0)'),
  ('Nc1nc(OCc2ccccc2)nc2[nH]ncc12', 'false (0)'),
  ('Cc1c(C)c2ccc(OC/C=C3\CCC(=O)O3)cc2oc1=O', 'false (0)'),
  ('COc1ccc(-c2ccc(/C=N/n3c(COc4ccc(Cl)cc4)n[nH]c3=S)o2)c([N+](=O)[O-])c1', 'false (0)');

// query Kindly provide the recorded test outcome for the following molecule: "Fc1ccc(Nc2nc(NCCNc3ccnc4cc(Cl)ccc34)nc(N3CCOCC3)n2)cc1"
// result false (0)

// query Kindly provide the recorded test outcome for the following molecule: CC(=O)C1=C([O-])C(C)OC1=O.CC(=O)C1=C([O-])C(C)OC1=O.[NH-]C1CCCC[C@H]1[NH-].[Pt+4] (centres undefined)
// result false (0)

// query Kindly provide the recorded test outcome for the following molecule: "C[C@H](CS(C)(=O)=O)Nc1ncc2cc(Oc3ccc(F)cc3F)c(=O)n(C)c2n1"
// result false (0)

====

System: KM12 colon
Test: NCI tumour cell line growth inhibition, 48 h
Below: a set of entries, each annotated with reported TGI.

// query Give TGI for "CN1CN(c2ccccc2)C2(CCN(CCCC(=O)c3cccs3)CC2)C1=O"
// result > 100 µM

// query Give TGI for "Cc1cc(NS(=O)(=O)c2ccc(Nc3c4ccccc4nc4ccc(C(=O)Nc5ccc(S(=O)(=O)N=C(N)N)cc5)cc34)cc2)no1"
// result > 100 µM

// query Give TGI for "CCOC(=O)c1c(C)n(Cc2ccc(Cl)cc2Cl)c2c1cc1oc(=O)c(=O)n3c(Cc4ccccc4)nc2c13"
// result 3.47 µM

====

Below: a set of entries, each annotated with reported TGI.
Tested on: A549 NSCLC
Experiment: NCI tumour cell line growth inhibition, 48 h

Example results:
INSERT INTO assay_data (compound, target_of_assay, reading) VALUES
  ('CN(C)Cc1cc(N=Nc2ccccc2Cl)cc(CN(C)C)c1O', 'A549 NSCLC', '> 100 µM'),
  ('[O-]c1on[n+]2c1c(Nc1ccc(Cl)cc1)nc1ccccc12', 'A549 NSCLC', '> 100 µM');

// query Give TGI for CC(=O)Nc1ccc(N2C(=O)/C(=C\c3cccc(Oc4ccccc4)c3)SC2c2ccccc2)cc1 (stereo not drawn)
// result > 100 µM

// query Give TGI for "Cc1c2cnccc2nc2[nH]c3ccncc3c12"
// result > 100 µM

// query Give TGI for "C[C@H](CS(C)(=O)=O)Nc1ncc2cc(Oc3ccc(F)cc3F)c(=O)n(C)c2n1"
// result > 25 µM

// query Give TGI for CCCCCCCCCCCC1N=C(N)NC(CCCO)=C1C(=O)OC (stereo not drawn)
// result 30.4 µM

// query Give TGI for CC(CCCOC(c1ccccc1)(c1ccccc1)c1ccccc1)OC(=O)Nc1cc([N+](=O)[O-])cc([N+](=O)[O-])c1 (stereo not drawn)
// result > 100 µM

// query Give TGI for "Cc1ncc([N+](=O)[O-])n1CCNC(=O)CCCn1cnc([N+](=O)[O-])n1"
// result > 100 µM

// query Give TGI for "O=C(NCCNCCO)N/N=C/c1ccc([N+](=O)[O-])cc1"
// result > 100 µM

// query Give TGI for "COc1cc(Oc2c(O)c(C)c(OC)c(C(C)=O)c2O)c(C(C)=O)c(O)c1C"
// result > 100 µM

// query Give TGI for "CC1=NN(C(=O)c2ccc(Cl)cc2)C(=O)/C1=C/c1cccc([N+](=O)[O-])c1"
// result > 100 µM

// query Give TGI for "COc1cc2c(c(OC)c1OC)C(=O)[C@H]1OC(=O)N[C@@H]21"
// result > 100 µM

// query Give TGI for "C=C(Br)CN(CC(=C)Br)C(C)=O"
// result > 100 µM

Where do these numbers come from? They come from PubChem BioAssay (NCI).
